Data origin, for the record: patent US20180207165A1

System: F. prausnitzii
experiment_notes: Stability of F. prausnitzii synbiotic formulations after exposure to ambient air (CFU count)
Design: species or system Faecalibacterium prausnitzii
run_parameters: ingredient in lyophilized formulation
Protocol: To produce a formulation with living faecalibacteria that are stable for at least 24 h under aerobic conditions, series of experiments were performed with different combinations of ingredients. […] After lyophilizing, the formulations were exposed to air for the indicated time periods. […] The Colony-forming units were counted and compared with a non exposed t=0 time point. […]
measurement_kind: protective effect on faecalibacteria against ambient air exposure

- smiles_representation: "O=C1O[C@H]([C@@H](O)CO)C(O)=C1O"
  value_measured: "not observed"
- smiles_representation: "O=c1c(O)c(-c2ccc(O)c(O)c2)oc2cc(O)cc(O)c12"
  value_measured: "not observed"
